# Tested on: Fusarium oxysporum f. sp. cucumerinum
# TEST PROTOCOL: Growth inhibition of Fusarium oxysporum f. sp. cucumerinum at 500 ug/ml after 4 days by poisoned food technique
# Format: functional
# RECORDED CONDITIONS: 96 h, read-out: GI
PROPERTY MEASURED: inhibition of growth at 500 µg/mL (%)
Answers are plain numbers, in %.

Solved cases (3 shown):
>>> numeric_readout("O=[N+]([O-])c1ccc(Oc2ccc(Cl)cc2)cc1")
38
>>> numeric_readout("O=[N+]([O-])c1ccccc1Oc1ccccc1")
65.3
>>> numeric_readout("Cc1cc(O)no1 [HYMEXAZOL]")
91.5

I would be grateful if you could provide inhibition of growth at 500 µg/mL for each of the following entries.
1. N#Cc1ccccc1Oc1ccc(Cl)cc1
2. O=[N+]([O-])c1ccc(Oc2ccc([N+](=O)[O-])cc2)cc1 [4,4'-OXYBIS(NITROBENZENE)]
3. CC(C)(C)c1ccc(Oc2ccccc2C#N)cc1
4. O=[N+]([O-])c1ccccc1Oc1ccccc1Cl
5. Cc1cccc(Oc2ccc([N+](=O)[O-])cc2)c1
6. O=[N+]([O-])c1ccc(Oc2ccccc2[N+](=O)[O-])cc1 [2,4'-OXYBIS(NITROBENZENE)]
7. O=[N+]([O-])c1ccc(Oc2ccccc2)cc1
8. Cc1cccc(Oc2ccccc2[N+](=O)[O-])c1

Result:
1: 54.3; 2: 50.9; 3: 33.3; 4: 53.8; 5: 64.6; 6: 33.3; 7: 72.9; 8: 46

Q: Report value only: inhibition of growth at 500 µg/mL, Fusarium oxysporum f. sp. cucumerinum, `CC(C)(C)c1ccc(Oc2ccccc2[N+](=O)[O-])cc1`
Result: 17.3

Values from ChEMBL document CHEMBL3046180
